Relative activity (%) values by entry
Test system: N-acylamino acid racemase
protocol-text: Substrate specificity of N-acylamino acid racemase (enzyme activity assay, TNBS method)
Format: biochemical, Sebekia benihana
conditions: substrate 20 mM, 1 mM cobalt chloride, pH 7.5, 30° C.; activity on N-acetyl-D-methionine taken as 100
metric-name: Relative activity (%)

1. CC(=O)N[C@@H](CC(=O)O)C(=O)O :: 68
2. CC(=O)N[C@H](C(=O)O)C(C)C :: 146
3. CC(=O)N[C@@H](C)C(=O)O :: 86
4. CC(=O)N[C@@H](Cc1ccccc1)C(=O)O :: 74
5. CSCC[C@H](NC(C)=O)C(=O)O :: 100
6. CC(=O)N[C@@H](Cc1c[nH]c2ccccc12)C(=O)O :: 69
7. CC(=O)N[C@@H](CC(C)C)C(=O)O :: 78
